These data points were gathered from paper PMC10817917.

Items are presented alongside their recorded MIC of colistin in combination with the compound.
- System: K. pneumoniae CQ4921
- Method description: Broth microdilution MIC/MBC, glycosides with or without polymyxins
- Type: cell-based, Klebsiella pneumoniae
- Condition set: Cpd conc. 12.5 μg/mL; strain C
Measured attribute: MIC of colistin in combination with the compound

{"Test smiles": "CCCCCCCCCCCC[C@H]1O[C@H](C)C[C@H](O)[C@H]1O", "Result": "0.125 µg/mL"}
{"Test smiles": "CCCCCCCCCCCCO[C@H]1O[C@H](C)C[C@H](O)[C@H]1O", "Result": "0.25 µg/mL"}
{"Test smiles": "CCCCCCCCCCCCO[C@@H]1O[C@H](C)C[C@H](O)[C@H]1O", "Result": "0.125 µg/mL"}
{"Test smiles": "CCCCCCCCCCCCO[C@@H]1C[C@@H](O)[C@H](O)[C@@H](CO)O1", "Result": "0.5 µg/mL"}
{"Test smiles": "CCCCCCCCCCCCO[C@H]1C[C@H](O)[C@@H](O)[C@H](C)O1", "Result": "0.25 µg/mL"}

====

- Tested on: K. pneumoniae CQ4921
- Method description: Broth microdilution MIC/MBC, glycosides with or without polymyxins
- Format: cell-based, Klebsiella pneumoniae
- Condition set: colistin 0.5 μg/mL; strain C
MIC of compound in combination with colistin by entry:
Measured attribute: MIC of compound in combination with colistin

{"Compound": "CCCCCCCCCCCCO[C@@H]1C[C@@H](O)[C@H](O)[C@@H](CO)O1 [Compound 4]", "Result": "≤ 0.1 µg/mL"}
{"Compound": "CCCCCCCCCCCC[C@H]1O[C@H](C)C[C@H](O)[C@H]1O [Compound 5]", "Result": "≤ 0.1 µg/mL"}
{"Compound": "CCCCCCCCCCCCO[C@H]1C[C@H](O)[C@@H](O)[C@H](C)O1 [Compound 3]", "Result": "0.2 µg/mL"}
{"Compound": "CCCCCCCCCCCCO[C@H]1O[C@H](C)C[C@H](O)[C@H]1O [Compound 1]", "Result": "1.6 µg/mL"}
{"Compound": "CCCCCCCCCCCCO[C@@H]1O[C@H](C)C[C@H](O)[C@H]1O [Compound 2]", "Result": "≤ 0.1 µg/mL"}

====

Listed below: MIC values for each entry.
- System: E. coli ATCC 25922
- Method description: Broth microdilution MIC/MBC, glycosides with or without polymyxins
- Type: cell-based, Escherichia coli
- Condition set: Escherichia coli, ATCC25922; antibiotic alone; strain A; read-out: MIC (antibiotic susceptibility profile)
Measured attribute: MIC (µg/mL)

{"Compound": "CO/N=C(\\C(=O)N[C@@H]1C(=O)N2C(C(=O)O)=C(COC(C)=O)CS[C@H]12)c1csc(N)n1 [Cefotaxime, reference compound]", "Result": 0.06}
{"Compound": "CNC(C)C1CCC(N)C(OC2C(N)CC(N)C(OC3OCC(C)(O)C(NC)C3O)C2O)O1 (centres unmarked) [Gentamicin, reference compound]", "Result": 0.5}
{"Compound": "CC1(C)S[C@@H]2[C@H](NC(=O)[C@H](N)c3ccc(O)cc3)C(=O)N2[C@H]1C(=O)O [Amoxicillin, reference compound]", "Result": 4}
{"Compound": "NC[C@H]1O[C@H](O[C@H]2[C@H](O)[C@@H](O[C@H]3O[C@H](CO)[C@@H](O)[C@H](N)[C@H]3O)[C@H](N)C[C@@H]2N)[C@H](N)C[C@@H]1O [Tobramycin, reference compound]", "Result": 0.5}
{"Compound": "C[C@@H](O)[C@H]1C(=O)N2C(C(=O)O)=C(S[C@@H]3CN[C@H](C(=O)Nc4cccc(C(=O)O)c4)C3)[C@H](C)[C@H]12 [Ertapenem, reference compound]", "Result": 0.008}
{"Compound": "CC1(C)S[C@@H]2[C@H](NC(=O)[C@H](N)c3ccccc3)C(=O)N2[C@H]1C(=O)O [Ampicillin, reference compound]", "Result": 4}

====

- Test system: K. pneumoniae CQ4921
- Method description: Broth microdilution MIC/MBC, glycosides with or without polymyxins
- Format: cell-based, Klebsiella pneumoniae
- Condition set: Cpd conc. 3.125 μg/mL; strain C
Recorded MIC of colistin in combination with the compound values for a group of compounds are listed next.
Measured attribute: MIC of colistin in combination with the compound (µg/mL)

{"Test smiles": "CCCCCCCCCCCCO[C@H]1O[C@H](C)C[C@H](O)[C@H]1O", "Result": 0.25}
{"Test smiles": "CCCCCCCCCCCCO[C@H]1C[C@H](O)[C@@H](O)[C@H](C)O1", "Result": 0.25}
{"Test smiles": "CCCCCCCCCCCCO[C@@H]1C[C@@H](O)[C@H](O)[C@@H](CO)O1", "Result": 0.5}
{"Test smiles": "CCCCCCCCCCCC[C@H]1O[C@H](C)C[C@H](O)[C@H]1O", "Result": 0.125}
{"Test smiles": "CCCCCCCCCCCCO[C@@H]1O[C@H](C)C[C@H](O)[C@H]1O", "Result": 0.125}

====

- System: E. coli ATCC 25922
- Method description: Broth microdilution MIC/MBC, glycosides with or without polymyxins
- Format: cell-based, Escherichia coli
- Condition set: combination with the lowest FICI
Measured attribute: MICA(A + B) (MIC of compound in combination with colistin) (µg/mL)

{"Test smiles": "CCCCCCCCCCCCO[C@@H]1O[C@H](C)C[C@H](O)[C@H]1O", "Result": 3.125}
{"Test smiles": "CCCCCCCCCCCCO[C@H]1C[C@H](O)[C@@H](O)[C@H](C)O1", "Result": 3.125}
{"Test smiles": "CCCCCCCCCCCCO[C@@H]1C[C@@H](O)[C@H](O)[C@@H](CO)O1", "Result": 0.4}
{"Test smiles": "CCCCCCCCCCCCO[C@H]1O[C@H](C)C[C@H](O)[C@H]1O", "Result": 3.125}
{"Test smiles": "CCCCCCCCCCCC[C@H]1O[C@H](C)C[C@H](O)[C@H]1O", "Result": 12.5}

====

- Test system: K. pneumoniae CQ1947
- Method description: Broth microdilution MIC, glycosides with or without polymyxins
- Type: cell-based, Klebsiella pneumoniae
- Condition set: Cpd conc. 3.125 μg/mL; strain F
Reported values of MIC of colistin in combination with the compound for individual entries
Measured attribute: MIC of colistin in combination with the compound

{"Compound": "CCCCCCCCCCCCO[C@H]1C[C@H](O)[C@@H](O)[C@H](C)O1 [Compound 3]", "Target desc": "K. pneumoniae CQ1947", "Result": "0.5 µg/mL"}
{"Compound": "CCCCCCCCCCCC[C@H]1O[C@H](C)C[C@H](O)[C@H]1O [Compound 5]", "Target desc": "K. pneumoniae CQ1947", "Result": "0.25 µg/mL"}
{"Compound": "CCCCCCCCCCCCO[C@@H]1O[C@H](C)C[C@H](O)[C@H]1O [Compound 2]", "Target desc": "K. pneumoniae CQ1947", "Result": "0.5 µg/mL"}
{"Compound": "CCCCCCCCCCCCO[C@H]1O[C@H](C)C[C@H](O)[C@H]1O [Compound 1]", "Target desc": "K. pneumoniae CQ1947", "Result": "0.5 µg/mL"}
{"Compound": "CCCCCCCCCCCCO[C@@H]1C[C@@H](O)[C@H](O)[C@@H](CO)O1 [Compound 4]", "Target desc": "K. pneumoniae CQ1947", "Result": "0.5 µg/mL"}

====

- System: Caco-2 cells
- Method description: Resazurin cell viability assay (cytotoxicity)
- Type: cell-based, human
- Condition set: Homo sapiens, Caco-2, 72 h, PMB 0.5 μg/mL, read-out: IC50
pIC50: −log10 of the molar value.
Each entry below carries its reported pIC50.

{"Test smiles": "CCCCCCCCCCCCO[C@@H]1O[C@H](C)C[C@H](O)[C@H]1O", "pIC50": 4.25}
{"Test smiles": "CCCCCCCCCCCCO[C@H]1O[C@H](C)C[C@H](O)[C@H]1O", "pIC50": 4.28}

====

- System: E. cloacae CQ1941
- Method description: Broth microdilution MIC/MBC, glycosides with or without polymyxins
- Format: cell-based
- Condition set: Cpd conc. 6.25 μg/mL; strain D
Reported MIC of colistin in combination with the compound values for the following compounds.
Measured attribute: MIC of colistin in combination with the compound (µg/mL)

{"Test smiles": "CCCCCCCCCCCCO[C@H]1C[C@H](O)[C@@H](O)[C@H](C)O1", "Target desc": "E. cloacae CQ1941", "Unit descriptor": "µg/mL", "Result": 0.25}
{"Test smiles": "CCCCCCCCCCCC[C@H]1O[C@H](C)C[C@H](O)[C@H]1O", "Target desc": "E. cloacae CQ1941", "Unit descriptor": "µg/mL", "Result": 0.125}
{"Test smiles": "CCCCCCCCCCCCO[C@@H]1O[C@H](C)C[C@H](O)[C@H]1O", "Target desc": "E. cloacae CQ1941", "Unit descriptor": "µg/mL", "Result": 0.25}
{"Test smiles": "CCCCCCCCCCCCO[C@@H]1C[C@@H](O)[C@H](O)[C@@H](CO)O1", "Target desc": "E. cloacae CQ1941", "Unit descriptor": "µg/mL", "Result": 0.5}
{"Test smiles": "CCCCCCCCCCCCO[C@H]1O[C@H](C)C[C@H](O)[C@H]1O", "Target desc": "E. cloacae CQ1941", "Unit descriptor": "µg/mL", "Result": 0.25}
